Biological target: Pro-Link-tagged Human GLP-1R (human, UniProt P43220 24-463)
Assay: cell-based or functional assay
Would you please tag the item 1 when its hGLP1R B-Arrestin2 % Top is 40% or above, and 0 when it is below?

See these solved cases before continuing.
XXEGTFTSDYSIXLDKKAQXAFIXYLIAGGPSSGAPPPS (D-Tyr1, Aib2, αMeL13, K17 conjugated to (2-[2-(2-Amino-ethoxy)-ethoxy]-acetyl)2-(γ-Glu)-CO-(CH2)18-CO2H, Aib20, D-Glu24, C-terminal amide (NH2)) [Example 352] :: 0
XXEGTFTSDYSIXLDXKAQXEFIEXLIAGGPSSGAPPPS (D-Tyr1, Aib2, αMeL13, Orn16, K17 conjugated to (2-[2-(2-Amino-ethoxy)-ethoxy]-acetyl)2-(γ-Glu)-CO-(CH2)16-CO2H, Aib20, αMeY25, C-terminal amide (NH2)) [Example 375] :: 0
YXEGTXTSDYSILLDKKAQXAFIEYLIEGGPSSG (Aib2, αMeF6, K17 conjugated to (2-[2-(2-Amino-ethoxy)-ethoxy]-acetyl)2-(γ-Glu)-CO-(CH2)16-CO2H, Aib20, C-terminal amide (NH2)) [Example 301] :: 1
YXEGTFTSDYSIXLDKKAQXEFIEXLIAGGPSSGAPPPS (Aib2, αMeL13, K17 conjugated to (2-[2-(2-Amino-ethoxy)-ethoxy]-acetyl)2-(γ-Glu)-CO-(CH2)18-CO2H, Aib20, αMeY25, C-terminal amide (NH2)) [Example 367] :: 1
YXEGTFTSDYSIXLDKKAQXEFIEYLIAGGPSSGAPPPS (not fully specified; Aib2, αMeL13, K17 conjugated to (2-[2-(2-Amino-ethoxy)-ethoxy]-acetyl)-(γ-Glu)-CO-(CH2)18-CO2H, Aib20, C-terminal amide (NH2)) [Example 339] :: 1

Continue with the binder presented below.
Req: Quick check, hGLP1R B-Arrestin2 % Top >= 40%? XXEGTFTSDYSIXLDXKAQXDFIEYLIAGGPSSGAPPPS (D-Tyr1, Aib2, αMeL13, Orn16, K17 conjugated to (2-[2-(2-Amino-ethoxy)-ethoxy]-acetyl)2-(γ-Glu)-CO-(CH2)18-CO2H, Aib20, C-terminal amide (NH2)) [Example 369]
Resp: 0

Reference for the values: patent US20220048967A1
